EXPERIMENT_NOTES: Stability in mouse liver microsomes assessed as parent compound remaining at 1 uM incubated for 10 mins
Assay type: ADME, Microsome
EXPERIMENTAL_PARAMETERS: liver microsomes, read-out: Stability
READOUT_TYPE: remaining at 10 min, 1 µM (%)

[
  {
    "CHEMICAL_STRUCTURE": "COc1c(-c2ccc(C(F)(F)F)cc2Cl)ccc2c1cnn2[C@@H](CC(C)C)c1ccc(C(=O)NCCC(=O)O)cc1",
    "remaining at 10 min, 1 µM, %": 87
  },
  {
    "CHEMICAL_STRUCTURE": "Cc1cc(C(F)(F)F)ccc1-c1cc2cnn([C@@H](CC(C)C)c3ccc(C(=O)NCCC(=O)O)cc3)c2cc1C",
    "remaining at 10 min, 1 µM, %": 70
  },
  {
    "CHEMICAL_STRUCTURE": "COc1c(-c2ccc(C(F)(F)F)cc2C)ccc2c1cnn2[C@@H](CC(C)C)c1ccc(C(=O)NCCC(=O)O)cc1",
    "remaining at 10 min, 1 µM, %": 83
  },
  {
    "CHEMICAL_STRUCTURE": "Cc1c(-c2ccc(C(F)(F)F)cc2Cl)ccc2nn([C@@H](CC(C)C)c3ccc(C(=O)NCCC(=O)O)cc3)cc12",
    "remaining at 10 min, 1 µM, %": 97
  }
]

Hello, the source for this data is ChEMBL document CHEMBL4396971, in case you need it.
